# studySystem: Recombinant human MetAP-2 (Homo sapiens, UniProt P50579)
# Sequence (P50579 whole entry): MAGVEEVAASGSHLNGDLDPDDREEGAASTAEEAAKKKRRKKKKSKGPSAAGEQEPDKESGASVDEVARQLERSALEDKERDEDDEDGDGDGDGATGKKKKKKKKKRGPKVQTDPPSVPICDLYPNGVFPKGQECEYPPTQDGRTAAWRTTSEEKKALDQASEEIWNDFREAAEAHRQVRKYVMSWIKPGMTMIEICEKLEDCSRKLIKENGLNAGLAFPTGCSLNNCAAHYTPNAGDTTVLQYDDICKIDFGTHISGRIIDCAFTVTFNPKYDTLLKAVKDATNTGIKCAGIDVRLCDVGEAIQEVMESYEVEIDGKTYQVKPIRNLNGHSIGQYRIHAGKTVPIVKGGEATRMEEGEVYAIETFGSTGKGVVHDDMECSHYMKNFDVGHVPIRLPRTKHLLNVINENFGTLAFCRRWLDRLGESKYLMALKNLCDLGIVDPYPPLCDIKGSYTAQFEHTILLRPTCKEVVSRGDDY
# assayComment: MetAP-2 enzymatic assay
# testParameters: 1 nM purified human MetAP-2, inhibitor incubated at 37° C. for 30 minutes, 1 mM Met-Gly-Met-Met, released methionine
property: log10 of IC50 (log10 of the value in nM)

compound	studySystem	obsValue
CC(C)=CC[C@H]1O[C@]1(C)[C@H]1C[C@H](OC(=O)N[C@@H](C(N)=O)C(C)C)CC[C@]12CO2 [Compound 17a]	Recombinant human MetAP-2 (Homo sapiens, UniProt P50579)	1.46
CC(C)=CC[C@H]1O[C@]1(C)[C@H]1C[C@H](OC(=O)N[C@H](Cc2ccccc2)C(N)=O)CC[C@]12CO2 [Compound 17c]	Recombinant human MetAP-2 (Homo sapiens, UniProt P50579)	1.20
CC(C)=CC[C@H]1O[C@]1(C)[C@H]1C[C@H](OC(=O)N[C@H](CC(C)C)C(N)=O)CC[C@]12CO2 [Compound 17f]	Recombinant human MetAP-2 (Homo sapiens, UniProt P50579)	1.59
C=CCNC(=O)[C@H](Cc1ccccc1)NC(=O)O[C@@H]1CC[C@]2(CO2)[C@@H]([C@@]2(C)O[C@@H]2CC=C(C)C)C1 [Compound 17i]	Recombinant human MetAP-2 (Homo sapiens, UniProt P50579)	1.67
C#CCNC(=O)[C@@H](Cc1ccccc1)NC(=O)O[C@@H]1CC[C@]2(CO2)[C@@H]([C@@]2(C)O[C@@H]2CC=C(C)C)C1 [Compound 17l]	Recombinant human MetAP-2 (Homo sapiens, UniProt P50579)	1.32
CC(C)=CC[C@H]1O[C@]1(C)[C@H]1C[C@H](OC(=O)N2CCN(c3ccc([N+](=O)[O-])cc3)CC2)CC[C@]12CO2 [Compound 17q]	Recombinant human MetAP-2 (Homo sapiens, UniProt P50579)	1.41
COc1ccc(CNC(=O)[C@H](Cc2ccccc2)NC(=O)O[C@@H]2CC[C@]3(CO3)[C@@H]([C@@]3(C)O[C@@H]3CC=C(C)C)C2)cc1 [Compound 17m]	Recombinant human MetAP-2 (Homo sapiens, UniProt P50579)	1.04
CC(C)=CC[C@H]1O[C@]1(C)[C@H]1C[C@H](OC(=O)N[C@@H](C(N)=O)c2ccccc2)CC[C@]12CO2 [Compound 17e]	Recombinant human MetAP-2 (Homo sapiens, UniProt P50579)	1.62
CC(C)=CC[C@H]1O[C@]1(C)[C@H]1C[C@H](OC(=O)N[C@@H](Cc2ccccc2)C(=O)N2CCN(Cc3ccc(F)cc3)CC2)CC[C@]12CO2 [Compound 17k]	Recombinant human MetAP-2 (Homo sapiens, UniProt P50579)	1.08
CC(C)=CC[C@H]1O[C@]1(C)[C@H]1C[C@H](OC(=O)N[C@@H](Cc2ccccc2)C(N)=O)CC[C@]12CO2 [Compound 17d]	Recombinant human MetAP-2 (Homo sapiens, UniProt P50579)	1.75
CC(C)=CC[C@H]1O[C@]1(C)[C@H]1C[C@H](OC(=O)N[C@H](C(N)=O)C(C)C)CC[C@]12CO2 [Compound 17b]	Recombinant human MetAP-2 (Homo sapiens, UniProt P50579)	1.70
CC(C)=CC[C@H]1O[C@]1(C)[C@H]1C[C@H](OC(=O)N[C@H](C(=O)NC2CC2)C(C)C)CC[C@]12CO2 [Compound 17n]	Recombinant human MetAP-2 (Homo sapiens, UniProt P50579)	1.28
CO[C@@H]1[C@H](O)CC[C@]2(CO2)[C@H]1[C@@]1(C)O[C@@H]1CC=C(C)C [Fumagillol]	Recombinant human MetAP-2 (Homo sapiens, UniProt P50579)	2.96

Where do the numbers come from? From patent US8299067B2.
